# study_target: hMC4-R (Homo sapiens (Human), UniProt P32245)
# Sequence (P32245 whole entry): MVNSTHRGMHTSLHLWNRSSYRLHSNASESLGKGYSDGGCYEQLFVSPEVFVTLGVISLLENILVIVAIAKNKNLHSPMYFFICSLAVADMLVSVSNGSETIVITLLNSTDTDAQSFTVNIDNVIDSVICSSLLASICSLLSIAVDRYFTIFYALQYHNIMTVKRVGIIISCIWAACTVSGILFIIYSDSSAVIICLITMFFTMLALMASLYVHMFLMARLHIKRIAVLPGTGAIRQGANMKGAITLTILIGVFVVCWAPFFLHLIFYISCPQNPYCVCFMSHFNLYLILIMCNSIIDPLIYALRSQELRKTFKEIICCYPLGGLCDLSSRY
# experiment_notes: Competitive binding assay using Eu-NDP-α-MSH (TRF), hMC4-R membranes
# protocol_conditions: averaged; Eu-NDP-α-MSH (values marked *); read-out: MC4-R Ki
Peptide text beside a SMILES is read from it.
parameter: Ki (nM)
Give just the numeric value; nM need not be written.

>  <molecule>
CC(=O)N[C@H](CCCNC(=N)N)C(=O)N[C@H]1CC(=O)NCCCC[C@@H](C(N)=O)NC(=O)[C@H](Cc2c[nH]c3ccccc23)NC(=O)[C@H](CCCNC(=N)N)NC(=O)[C@@H](Cc2ccccc2)NC(=O)[C@@H]2C[C@@H](Cc3ccccc3)CN2C1=O [compound 72]

>  <units_text>
nM

>  <Ki>
2

$$$$

# evaluate next
Task: Any idea what Ki came out for CC(=O)N[C@@H](CCCNC(=N)N)C(=O)N[C@H]1CC(=O)NCCCC[C@@H](C(N)=O)NC(=O)[C@H](Cc2c[nH]c3ccccc23)NC(=O)[C@H](CCCCN)NC(=O)[C@@H](Cc2ccccc2)NC(=O)[C@H](CCCCN)NC1=O [compound 7] (HELM PEPTIDE1{[ac].R.D.K.[dF].K.W.K.[am]}$PEPTIDE1,PEPTIDE1,3:R3-8:R3$$$V2.0) on hMC4-R (Homo sapiens (Human), UniProt P32245)?
Output: 2960
